Listing of entries alongside the reported T/C.
- Test system: CD2F1 mice, L1210 leukemia ip, survival T/C
- TEST_DESCRIPTION: NCI In Vivo Anticancer Drug Screen. Data for tumor model L1210 Leukemia (intraperitoneal) in CD2F1 (CDF1) mice
- TEST_CONDITIONS: endpoint: mean survival time; dose: 200.0 mg/kg/injection; schedule: Q04DX003 (ip); vehicle: saline with Tween-80; higher = longer survival
Toxic doses and inconclusive results are not listed.
MEASUREMENT_KIND: T/C

c1ccc2c3c([nH]c2c1)CCCCC3    95 % of control
CCCCCCCCCCC(=O)CC    102 % of control
O=[N+]([O-])c1ccc(N/N=C(\c2ccccc2)C2OCCC2c2ccccc2)c([N+](=O)[O-])c1 (stereo not drawn)    91 % of control
N#C/C(=C\c1ccc(-c2ccccc2)cc1)c1ccc(Cl)cc1    87 % of control
CCOC(=O)CCC[P+](c1ccccc1)(c1ccccc1)c1ccccc1    100 % of control
CC1CNC(Cl)O1 (stereo not drawn)    105 % of control
Cc1ccc(CNc2cccnc2)cc1    93 % of control
O=C1NC(=O)c2cccc3cccc1c23    102 % of control
CCCCC(CC(=O)O)c1ccc(Cl)cc1 (stereo not drawn)    101 % of control
CCOC(=O)/C(=C\c1ccccc1Cl)C(C)=O    107 % of control
CC(C)(C)OC(=O)NC(CO)C(=O)O (stereo not drawn)    86 % of control
CCOC(=O)C(=NCc1ccc2c(c1)OCO2)NO    100 % of control
COc1ccc2ccccc2c1/C=N/N1CCCCC1    102 % of control
